Where these numbers come from: ChEMBL document CHEMBL6103548

Test system: Hepatitis B virus
Test protocol: Antiviral activity against Hepatitis B virus infected in HepDE19 cells assessed as inhibition of viral replication
Format: functional, organism-based
Reported property: pEC50
pEC50 here: minus log base 10 of the concentration, concentration in moles per litre.

Looking up O=C(O)C1CC(OCCOc2ccc(-c3cc(=O)c4cccc(Cl)c4o3)cc2)C1 (stereo unspecified) , I see its pEC50 listed as 7.00

----------
System: Hepatitis B virus
Test protocol: Antiviral activity against HBV infected in human HePAD38 cells assessed as reduction in intracellular core HBV DNA replication by Southern blot analysis
Assay type: functional, organism-based
Reported property: EC50
A bare number is not enough; add the unit after it.

Briefly, EC50 measured for NC(=O)c1ccc(N)nc1 [6-AMINONICOTINAMIDE] : 23.9 µM
